Provenance of the data: patent US10301304B2

assay: Oral pharmacokinetics / bioavailability; format: in vivo, Rat; details: in vivo; Rat, single oral, 1 mg/kg nominal, spray-dried dispersion; read-out: AUCALL
Measured endpoint: AUC (ng·h/mL)
Hi! Could you send only the number? It should be in ng·h/mL, unit omitted.

Tell me the measured AUC of Cc1cc(-c2cncc([C@@H](O)C(F)(F)F)c2)nc2c1C(=O)N(c1cnn(CC(F)F)c1)C2(C)C , please.
5000

----------
assay: Tissue Distribution in Rats; format: in vivo, rat; details: male, heart; rat, 5 mg/kg oral, 0.5 hr post dose; read-out: Tissue to Plasma Ratio, Heart
Measured endpoint: Kp at 0.5 hr
Answer as a number with no unit attached.

Requested read-out: Kp at 0.5 hr. Entry: Cc1cc(-c2cncc([C@@H](O)C(F)(F)F)c2)nc2c1C(=O)N(c1cnn(CC(F)F)c1)C2(C)C
0.98
